System: H-bc
Test: MTT cell survival / IC50, H-bc cells
Format: cell-based, human
Conditions: H-bc; Table S3; ng/ml: Pi 40, Pa 160, EH 250, Ci 1500, Mi 200; 1=Ci/Mi, 2=EH/Ci/Mi, 3=Pa/Ci/Mi, 4=Pi/Ci/Mi
Description: The clinical grade of the chemotherapeutics (NCI Dictionary of Cancer Terms) was provided by the First Affiliated Hospital of Harbin Medical University: Pirarubicin (Pi, Wanle, Shenzhen), Paclitaxel (Pa, Taiji, Sichuan), Adriamycin (Ad, Pfizer, Jiangsu), Epirubicin Hydrochloride (EH, Haizheng, Zhejiang), Hydroxycamptothecin (Hy, Lishizhen, Hubei), Cisplatin (Ci, Haosen, Jiangsu), Gemcitabine (Ge, Haosen, Jiangsu) and Mitomycin (Mi, Haizheng, Zhejiang). […]
Exercise: for every item that follows, state its recorded Cell survival (%).
Express your answer in %, writing the number without its unit.

[in] Query Cell survival (%) on H-bc for N.N.[Cl][Pt][Cl] [Ci, (SP-4-2)-diamminedichloroplatinum(II)]
[out] 41.98

[in] Query Cell survival (%) on H-bc for COc1cccc2c1C(=O)c1c(O)c3c(c(O)c1C2=O)C[C@@](O)(C(=O)CO)CC3O[C@H]1C[C@H](N)[C@H](O[C@@H]2CCCCO2)[C@H](C)O1 (some centres unmarked) [Pi]
[out] 86.89

[in] Query Cell survival (%) on H-bc for COc1cccc2c1C(=O)c1c(O)c3c(c(O)c1C2=O)C[C@@](O)(C(=O)CO)C[C@@H]3[C@@H]1C[C@H](N)[C@@H](O)[C@H](C)O1 [EH]
[out] 61.03

[in] Query Cell survival (%) on H-bc for CC(=O)O[C@H]1C(=O)[C@@]2(C)[C@H]([C@H](OC(=O)c3ccccc3)[C@]3(O)C[C@H](OC(=O)[C@H](O)[C@@H](NC(=O)c4ccccc4)c4ccccc4)C(C)=C1C3(C)C)[C@]1(OC(C)=O)CO[C@@H]1C[C@@H]2O [Pa, Paclitaxel]
[out] 13.96

[in] Query Cell survival (%) on H-bc for COC12C(COC(N)=O)C3=C(C(=O)C(C)=C(N)C3=O)N1CC1NC12 (centres unmarked) [Mi]
[out] 91.67

---

system: H-bc; experiment: MTT cell survival / IC50, H-bc cells; format: cell-based, human; conditions: H-bc; ng/ml: EH 1000, Ci 6000, Mi 800, Pi 160, Pa 640, Ge 20; EH/Ci/Mi regimen
measure: Single drug 4X Cell Survival (%)
Express your answer in %, writing the number without its unit.

[in] Query: Single drug 4X Cell Survival (%); subject: COc1cccc2c1C(=O)c1c(O)c3c(c(O)c1C2=O)C[C@@](O)(C(=O)CO)C[C@@H]3[C@@H]1C[C@H](N)[C@@H](O)[C@H](C)O1 [EH]
[out] 2.6

[in] Query: Single drug 4X Cell Survival (%); subject: CC(=O)O[C@H]1C(=O)[C@@]2(C)[C@H]([C@H](OC(=O)c3ccccc3)[C@]3(O)C[C@H](OC(=O)[C@H](O)[C@@H](NC(=O)c4ccccc4)c4ccccc4)C(C)=C1C3(C)C)[C@]1(OC(C)=O)CO[C@@H]1C[C@@H]2O [Pa, Paclitaxel]
[out] 12.89

[in] Query: Single drug 4X Cell Survival (%); subject: N.N.[Cl][Pt][Cl] [Ci, (SP-4-2)-diamminedichloroplatinum(II)]
[out] 1.61

[in] Query: Single drug 4X Cell Survival (%); subject: COc1cccc2c1C(=O)c1c(O)c3c(c(O)c1C2=O)C[C@@](O)(C(=O)CO)CC3O[C@H]1C[C@H](N)[C@H](O[C@@H]2CCCCO2)[C@H](C)O1 (stereo partly drawn) [Pi]
[out] 16.04

[in] Query: Single drug 4X Cell Survival (%); subject: COC12C(COC(N)=O)C3=C(C(=O)C(C)=C(N)C3=O)N1CC1NC12 (stereo not drawn) [Mi]
[out] 81.16

[in] Query: Single drug 4X Cell Survival (%); subject: Nc1ccn([C@@H]2O[C@H](CO)[C@@H](O)C2(F)F)c(=O)n1 [Ge, Gemcitabine]
[out] 83.17
